The entries below come with measured microsomal CLint values attached.
assay: Intrinsic clearance in human liver microsomes; format: ADME; conditions: liver microsomes, read-out: CLH
MEASUREMENT_TYPE: microsomal CLint

> print(dat)
                                    molecule          reading
 1  CC(C)(CN1C(=O)c2ccccc2C1C(=O)NCC(F)F)c1ccc(F)cc1 (stereo not given)   < 12 µL/min/mg
 2  Cc1c(OS(C)(=O)=O)ccc2c1C(=O)N(Cc1ccccc1-c1ccccc1)C2C(=O)NC(C)(C)C (racemic)  > 100 µL/min/mg
 3  COCCOCCNC(=O)C1c2cc(F)ccc2C(=O)N1CC(C)c1ccc(Cl)cc1 (racemic)  > 100 µL/min/mg
 4  O=C(NCc1ccncc1)C1c2ccccc2C(=O)N1Cc1ccccc1-c1ccccc1 (racemic)  > 100 µL/min/mg
 5  CC(C)(C)NC(=O)C1c2ccc(C#N)cc2C(=O)N1Cc1ccccc1-c1ccccc1 (racemic)  > 100 µL/min/mg
 6  Cc1c(OC(F)F)ccc2c1C(=O)N(Cc1ccccc1-c1ccccc1)C2C(=O)NC(C)(C)C (racemic)  > 100 µL/min/mg
 7  Cc1c(O)ccc2c1C(=O)N(Cc1ccccc1-c1ccccc1)C2C(=O)NC(C)(C)C (racemic)   < 12 µL/min/mg
 8  COc1ccc2c(c1)C(=O)N(Cc1ccccc1-c1ccccc1)C2C(=O)NC(C)(C)C (racemic)  > 100 µL/min/mg
 9  COc1ccc2c(c1C)C(=O)N(Cc1ccccc1-c1ccccc1)C2C(=O)NC(C)(C)C (racemic)  > 100 µL/min/mg
10  CCCCNC(=O)C1c2ccccc2C(=O)N1CC(C)c1ccc(Cl)cc1 (racemic)  > 100 µL/min/mg
11  CC(C)(C)NC(=O)C1c2ccccc2C(=O)N1Cc1ccccc1-c1ccccc1 (racemic)  > 100 µL/min/mg
12  CC(C)(C)NC(=O)C1c2ccccc2C(=O)N1Cc1ccc(F)cc1-c1ccccc1 (single isomer, unassigned; enantiomer 1)     58 µL/min/mg
13  CC(CN1C(=O)c2ccccc2C1C(=O)NCC(F)F)c1ccc(Cl)cc1 (racemic)     73 µL/min/mg
14  Cc1c(O)ccc2c1C(=O)N(Cc1ccccc1-c1ccc(F)cc1)C2C(=O)NC(C)(C)C (stereo not given)   < 12 µL/min/mg
15  Cc1c(OCF)ccc2c1C(=O)N(Cc1ccccc1-c1ccccc1)C2C(=O)NC(C)(C)C (racemic)  > 100 µL/min/mg
16  CC(c1ccccc1)N1C(=O)c2ccccc2C1C(=O)NCc1ccccc1 (racemic)  > 100 µL/min/mg
17  Cc1c(O)ccc2c1C(=O)N(Cc1ccccc1-c1ccc(F)c(F)c1)C2C(=O)NC(C)(C)C (stereo not given)   < 12 µL/min/mg
18  CC(C)(C)NC(=O)C1c2c(O)cccc2C(=O)N1Cc1ccccc1-c1ccccc1 (racemic)  > 100 µL/min/mg
19  CC(C)(C)NC(=O)C1c2cc(C#N)ccc2C(=O)N1Cc1ccccc1-c1ccccc1 (racemic)  > 100 µL/min/mg
20  CC(C)(C)NC(=O)C1c2ccc(O)cc2C(=O)N1Cc1ccccc1-c1ccccc1 (racemic)  > 100 µL/min/mg

====

system: Mus musculus; experiment: In vivo inhibition of Kv1.5 channel in BaLBc mouse assessed as unbound steady-state plasma concentration required to increase QT-interval by 30% at 20 umol/kg,iv for 15 mins; assay type: functional
MEASUREMENT_TYPE: log10 Activity (log10 of the value in µM)

> print(dat)
                                   compound  measurement.type  reading
1  CC(C)(C)NC(=O)C1c2ccccc2C(=O)N1Cc1ccc(F)cc1-c1ccc(F)cc1 (stereo not drawn)    log10 Activity    -0.05
2  CC(C)(CN1C(=O)c2ccccc2C1C(=O)NCCCF)c1ccc(Cl)cc1 (single isomer, unassigned; enantiomer 1)    log10 Activity    -0.40
3  CC(C)(C)NC(=O)C1c2ccccc2C(=O)N1Cc1ccc(F)cc1-c1ccccc1 (single isomer, unassigned; enantiomer 1)    log10 Activity    -1.27
4  CCCNC(=O)C1c2ccccc2C(=O)N1CC(C)c1ccc(Cl)cc1 (single isomer, unassigned; isomer 1)    log10 Activity    -0.30
5  CC(C)(C)NC(=O)C1c2ccccc2C(=O)N1Cc1cc(F)ccc1-c1ccccc1 (single isomer, unassigned; enantiomer 1)    log10 Activity    -1.10
6  CC(C)(C)NC(=O)C1c2ccccc2C(=O)N1Cc1cc(F)ccc1-c1ccc(F)cc1 (single isomer, unassigned; enantiomer 1)    log10 Activity    -1.26
7  CC(C)(CN1C(=O)c2ccccc2C1C(=O)NCC(F)F)c1ccc(F)cc1 (stereo not drawn)    log10 Activity     0.20
8  CC(C)(CN1C(=O)c2ccccc2C1C(=O)NCCCF)c1ccc(Cl)cc1 (stereo in doubt; 23)    log10 Activity     0.11

====

target: UniProt:P22460; assay: Inhibition of human Kv1.5 channel by Rb-flux assay
The entries below come with measured IC50 values attached.
MEASUREMENT_TYPE: IC50

> print(dat)
                                   compound  reading
1  CC(C)(C)NC(=O)C1c2cc(Cl)ccc2C(=O)N1C(c1cccnc1)c1cccnc1 (racemic)  > 32 µM
2  COCCOCCNC(=O)C1c2cc(F)ccc2C(=O)N1CC(C)c1ccc(Cl)cc1 (racemic)  > 32 µM
3  CC(c1ccccc1)N1C(=O)c2ccccc2C1C(=O)NC(C)(C)CO (racemic)  > 32 µM

====

target: Potassium voltage-gated channel subfamily A member 5 (Homo sapiens); test: Inhibition of human Kv1.5 channel by QPatch-clamp method
Sequence (P22460 whole entry): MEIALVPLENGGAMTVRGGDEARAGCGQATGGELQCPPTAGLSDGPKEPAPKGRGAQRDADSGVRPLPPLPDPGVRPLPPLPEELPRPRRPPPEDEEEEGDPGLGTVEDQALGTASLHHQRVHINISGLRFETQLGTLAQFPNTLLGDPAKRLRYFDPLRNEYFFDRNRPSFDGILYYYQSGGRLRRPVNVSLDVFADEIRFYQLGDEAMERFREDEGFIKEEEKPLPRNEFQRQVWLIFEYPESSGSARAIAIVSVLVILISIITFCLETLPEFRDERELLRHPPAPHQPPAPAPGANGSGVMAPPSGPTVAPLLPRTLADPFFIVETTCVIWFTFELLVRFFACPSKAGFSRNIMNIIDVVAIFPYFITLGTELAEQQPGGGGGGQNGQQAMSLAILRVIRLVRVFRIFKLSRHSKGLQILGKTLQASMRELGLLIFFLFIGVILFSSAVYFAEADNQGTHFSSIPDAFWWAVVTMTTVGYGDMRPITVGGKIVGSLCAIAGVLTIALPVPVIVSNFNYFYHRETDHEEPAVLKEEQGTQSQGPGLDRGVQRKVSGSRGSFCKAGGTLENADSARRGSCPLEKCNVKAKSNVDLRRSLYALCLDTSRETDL
MEASUREMENT_TYPE: IC50

> print(dat)
                                    compound  measurement.type     reading
 1  CC(C)(C)NC(=O)C1c2ccccc2C(=O)N1Cc1cc(F)ccc1-c1ccc(F)cc1 (single isomer, unassigned; enantiomer 1)              IC50     2000 nM
 2  Cc1c(O)ccc2c1C(=O)N(Cc1ccccc1-c1ccc(F)cc1)C2C(=O)NC(C)(C)C (stereo unspecified)              IC50     2700 nM
 3  CC(C)(C)NC(=O)C1c2ccccc2C(=O)N1Cc1ccccc1-c1ccc(F)c(F)c1 (stereo in doubt; 16E1)              IC50     1500 nM
 4  CC(C)(C)NC(=O)C1c2c(O)cccc2C(=O)N1Cc1ccccc1-c1ccccc1 (racemic)              IC50     2100 nM
 5  CC(C)(CN1C(=O)c2ccccc2C1C(=O)NCCCC(F)F)c1ccc(F)cc1 (stereo unspecified)              IC50      600 nM
 6  CC(C)(C)NC(=O)C1c2ccc(O)cc2C(=O)N1Cc1ccccc1-c1ccccc1 (racemic)              IC50     6900 nM
 7  CC(c1ccccc1)N1C(=O)c2ccccc2C1C(=O)NC(C)(C)CO (racemic)              IC50  > 10000 nM
 8  CC(C)(C)NC(=O)C1c2ccccc2C(=O)N1Cc1ccc(F)cc1-c1ccc(F)cc1 (stereo unspecified)              IC50     1400 nM
 9  CC(CN1C(=O)c2ccccc2C1C(=O)NCC(F)F)c1ccc(Cl)cc1 (racemic)              IC50     1200 nM
10  Cc1c(O)ccc2c1C(=O)N(Cc1ccccc1-c1ccccc1)C2C(=O)NC(C)(C)C (racemic)              IC50     2000 nM
11  CCCCNC(=O)C1c2ccccc2C(=O)N1CC(C)c1ccc(F)cc1 (racemic)              IC50      900 nM
12  CCCCNC(=O)C1c2ccccc2C(=O)N1CC(C)c1ccc(Cl)cc1 (racemic)              IC50     1100 nM
13  CCCNC(=O)C1c2ccccc2C(=O)N1CC(C)c1ccc(Cl)cc1 (single isomer, unassigned; isomer 1)              IC50      400 nM
14  CC(C)(CN1C(=O)c2ccccc2C1C(=O)NCC(F)F)c1ccc(F)cc1 (stereo unspecified)              IC50     1200 nM
15  CC(C)(C)NC(=O)C1c2ccccc2C(=O)N1Cc1ccccc1-c1ccc(F)cc1 (stereo unspecified)              IC50     6000 nM
16  CC(C)(C)NC(=O)C1c2cc(C#N)ccc2C(=O)N1Cc1ccccc1-c1ccccc1 (racemic)              IC50     3300 nM
17  Cc1c(OCF)ccc2c1C(=O)N(Cc1ccccc1-c1ccccc1)C2C(=O)NC(C)(C)C (racemic)              IC50     1300 nM
18  CC(C)(C)NC(=O)C1c2ccccc2C(=O)N1Cc1ccc(F)cc1-c1ccccc1 (single isomer, unassigned; enantiomer 1)              IC50      800 nM
19  Cc1c(NS(C)(=O)=O)ccc2c1C(=O)N(Cc1ccccc1-c1ccccc1)C2C(=O)NC(C)(C)C (racemic)              IC50     4500 nM
20  Cc1c(O)ccc2c1C(=O)N(Cc1ccccc1-c1ccccc1)C2C(=O)NC(C)(C)C (single isomer, unassigned; enantiomer 2)              IC50     3400 nM
21  CC(C)(C)NC(=O)C1c2ccc(NS(C)(=O)=O)cc2C(=O)N1Cc1ccccc1-c1ccccc1 (racemic)              IC50     7600 nM
